# target_entity: T1, human ferroportin (SLC40A1) fused in frame with GFP, stably expressed in HEK293 cells (human, UniProt Q9NP59 1-571)
# T1 sequence (looked up): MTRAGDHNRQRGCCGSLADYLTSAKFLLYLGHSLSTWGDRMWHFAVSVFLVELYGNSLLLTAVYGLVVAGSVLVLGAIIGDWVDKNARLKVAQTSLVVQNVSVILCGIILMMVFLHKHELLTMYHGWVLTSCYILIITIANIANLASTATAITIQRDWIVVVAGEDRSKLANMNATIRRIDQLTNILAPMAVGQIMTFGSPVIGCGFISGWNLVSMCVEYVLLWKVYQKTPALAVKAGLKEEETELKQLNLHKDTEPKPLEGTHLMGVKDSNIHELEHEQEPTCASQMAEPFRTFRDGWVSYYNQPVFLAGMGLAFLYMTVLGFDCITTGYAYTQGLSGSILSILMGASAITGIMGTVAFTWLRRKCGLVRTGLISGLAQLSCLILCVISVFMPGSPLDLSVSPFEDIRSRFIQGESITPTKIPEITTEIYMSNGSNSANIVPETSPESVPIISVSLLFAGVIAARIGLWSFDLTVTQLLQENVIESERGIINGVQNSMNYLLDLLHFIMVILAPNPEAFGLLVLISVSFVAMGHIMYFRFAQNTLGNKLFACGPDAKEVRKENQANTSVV
# test_protocol: cell-based or functional assay
Bridge positions count the residues as written; N and C are the ends.
readout: Potency EC50 (nM), ferroportin-GFP internalization/degradation

H-DTHCPIAIF-NH2 [Hy-DTHCPIAIF-NH2] | > 10000 nM
H-DTHFPRRFGPRSKGWVC-NH2 [Hy-DTHFPRRFGPRSKGWVC-NH2] | > 1000 nM
H-DTHFPCIIFAC-NH2 (disulfide 6-11 (inferred)) [Hy-DTHFPCIIFAC-NH2] | > 1000 nM
